Measured EC50 values are reported for all entries that follow.
system: parasites (ring stage, in human red blood cell culture); experiment: Parasite LDH growth assay (antiparasite potency, Parasite Assay); format: cell-based, Plasmodium falciparum; conditions: Plasmodium falciparum, Erythrocyte, 72 h, 0.7% rings, 2% haematocrit, 72 hours at 37° C., LDH readout of parasite growth

Record excerpt, results attached:
CCC1(CC)CC(=O)N(C2c3cc(C(=O)N[C@@H]4c5ccccc5C[C@H]4O)ccc3OCC2(C)OC)C(=N)N1 (stereo partly shown): 3.7 nM
CCC1(CC)CC(=O)N([C@@H]2C[C@H](OC)c3ccc(C(=O)N[C@@H]4c5ccccc5OC[C@@]4(C)O)cc32)C(=N)N1: 2.1 nM
CC1(C)CC(=O)N([C@@H]2CC(C)(C)Oc3ccc(C(=O)N[C@@H]4c5ccccc5OC(C)(C)[C@H]4O)cc32)C(=N)N1 [Example 47A]: 4.7 nM
CC1(C)CC(=O)N([C@@H]2CCOc3ccc(C(=O)N[C@H]4c5ccccc5OC(C)(C)[C@]4(C)O)cc32)C(=N)N1: 105 nM
CC[C@]1(C)CC(=O)N([C@@H]2CCOc3ccc(C(=O)N[C@@H]4c5cc(Cl)ccc5OC[C@@]4(C)O)cc32)C(=N)N1: 2.7 nM
CCC1(CC)CC(=O)N([C@@H]2CCOc3ccc(C(=O)N[C@H]4c5ccccc5C(F)(F)[C@@H]4O)cc32)C(=N)N1: 125 nM
CC1(C)CC(=O)N([C@@H]2CCc3ccc(C(=O)N[C@@H]4c5ccccc5C[C@]4(C)O)cc32)C(=N)N1: 9.6 nM
CCC1(CC)CC(=O)N([C@@H]2c3cc(C(=O)N[C@@H]4c5ccccc5OC[C@@]4(C)O)ccc3OC[C@@H]2COC)C(=N)N1: 240 nM

Q) Observed EC50 on parasites (ring stage, in human red blood cell culture) for "CCC1(CC)CC(=O)N([C@@H]2CCCc3ccc(C(=O)N[C@H]4CC(C)(C)Oc5ccccc54)cc32)C(=N)N1" , please.
A) 1.1 nM

Q) State its EC50 on parasites (ring stage, in human red blood cell culture): "CC[C@]1(C)CC(=O)N([C@@H]2C[C@@H](C)c3ccc(C(=O)N[C@@H]4c5ccccc5C[C@@]4(C)O)cc32)C(=N)N1"
A) 8.8 nM

* * *

# log10(EC50) annotations
system: parasites (ring stage, in human red blood cell culture); assay: Parasite LDH growth assay (antiparasite potency, Parasite Assay); assay type: cell-based, Plasmodium falciparum; settings: Plasmodium falciparum, Erythrocyte, 72 h, 0.7% rings, 2% haematocrit, 72 hours at 37° C., LDH readout of parasite growth
Base-10 log of EC50, unit nM.

Some entries whose results are on file:
CC1(C)CC(=O)N([C@@H]2CCOc3ccc(C(=O)N[C@@H]4c5cc(Cl)ccc5OC[C@@]4(C)O)cc32)C(=N)N1: 0.54
CCC1(CC)CC(=O)N([C@@H]2C[C@@H](CCCCCCN)Oc3ccc(C(=O)N[C@H]4CC(C)(C)Oc5ccccc54)cc32)C(=N)N1: 1.61
CC1(C)CC(=O)N([C@@H]2CCc3ccc(C(=O)N[C@@H]4c5ccccc5C[C@H]4O)cc32)C(=N)N1: 0.95
CCC1(CC)CC(=O)N([C@@H]2C[C@@H](OC)c3ccc(C(=O)N[C@@H]4c5ccccc5OC(C)(C)[C@H]4O)cc32)C(=N)N1: -0.05
C[C@H]1Cc2ccc(C(=O)N[C@@H]3c4ccccc4OC(C)(C)[C@H]3O)cc2[C@H]1N1C(=N)NC(C)(C)CC1=O: 2.38

API: the following record is the query input.
Q) Request the reported log10(EC50) associated with CC1(C)CC(=O)N(C2CC(C)(C)c3ccc(C(=O)N[C@@H]4c5ccccc5C[C@@]4(C)O)cc32)C(=N)N1 (stereo partly drawn)
A) 2.28

* * *

Listed compounds paired with reported pEC50
test system: parasites (ring stage, in human red blood cell culture); test: Parasite LDH growth assay (antiparasite potency, Parasite Assay); format: cell-based, Plasmodium falciparum; conditions: Plasmodium falciparum, Erythrocyte, 72 h, 0.7% rings, 2% haematocrit, 72 hours at 37° C., LDH readout of parasite growth
Reminder that pEC50 means the negative base-10 logarithm of the concentration expressed in mol/L.

Please review the following examples before continuing.
CCC1(CC)CC(=O)N([C@@H]2CCS(=O)(=O)c3ccc(C(=O)N[C@@H]4c5ccccc5C[C@@]4(C)O)cc32)C(=N)N1 [Example 260]: 8.09
CCC1(CC)CC(=O)N([C@H]2CCS(=O)(=O)c3ccc(C(=O)N[C@@H]4c5ccccc5C[C@@]4(C)O)cc32)C(=N)N1 [Example 261]: 6.88

// switching to the query compound
Q) Record request: pEC50 value, item CCC1(CC)CC(=O)N([C@@H]2CCOc3ccc(C(=O)N[C@@H]4c5cc(Cl)ccc5OC(C)(C)[C@H]4O)cc32)C(=N)N1 [Example 19A]
A) 9.52

* * *

test system: parasites (ring stage, in human red blood cell culture); assay: Parasite LDH growth assay (antiparasite potency, Parasite Assay); assay type: cell-based, Plasmodium falciparum; details: Plasmodium falciparum, Erythrocyte, 72 h, 0.7% rings, 2% haematocrit, 72 hours at 37° C., LDH readout of parasite growth
propertyLabel: EC50 (nM)
Number in nM, nothing else.

CCC1(CC)CC(=O)N([C@@H]2CCOc3c(Cl)cc(C(=O)N[C@@H]4CC(C)(C)Oc5ccccc54)cc32)C(=N)N1 [Example 26B]: 180
CCC1(CC)CC(=O)N([C@H]2c3cc(C(=O)N[C@@H]4c5ccccc5C[C@H]4O)ccc3OC[C@@H]2C)C(=N)N1: 0.8
CCC1(CC)CC(=O)N([C@@H]2CC(COC)Oc3ccc(C(=O)N[C@@H]4c5ccccc5C[C@H]4O)cc32)C(=N)N1 (single isomer, unassigned) [Example 17A]: 2.7
CCC1(CC)CC(=O)N([C@@H]2CCOc3c(Cl)cc(C(=O)N[C@@H]4c5ccccc5OC(C)(C)[C@H]4O)cc32)C(=N)N1 [Example 29A]: 1
CCC1(CC)CC(=O)N([C@H]2c3cc(C(=O)N[C@@H]4c5cc(C#N)ccc5OC[C@@]4(C)O)ccc3OC[C@H]2COC)C(=N)N1: 1.8

Q) Fill blank: measured EC50 of the compound "CC[C@]1(C)CC(=O)N([C@@H]2CCOc3ccc(C(=O)N[C@@H]4c5ccccc5OC[C@H]4OC)cc32)C(=N)N1" is ____.
A) 8.4

Q) Need EC50 of CCC1(CC)CC(=O)N(C2CC(C(=O)N(C)C)Oc3ccc(C(=O)N[C@H]4CC(C)(C)Oc5ccccc54)cc32)C(=N)N1 (stereo partly shown) , thanks.
A) 1.7

Q) Requested read-out: EC50. Entry: "C[C@@H]1Cc2ccc(C(=O)N[C@@H]3c4ccccc4OC(C)(C)[C@H]3O)cc2[C@@H]1N1C(=N)NC(C)(C)CC1=O"
A) 0.9

* * *

Examples of molecules with documented EC50 follow.
test system: parasites (ring stage, in human red blood cell culture); test: Parasite LDH growth assay (antiparasite potency, Parasite Assay); format: cell-based, Plasmodium falciparum; details: Plasmodium falciparum, Erythrocyte, 72 h, 0.7% rings, 2% haematocrit, 72 hours at 37° C., LDH readout of parasite growth
The answer is to be given in nM; state only the numeric part.

CCC1(CC)CC(=O)N([C@H]2C[C@@H](OC)c3ccc(C(=O)N[C@@H]4c5ccccc5C[C@H]4O)cc32)C(=N)N1: 210
CCC1(CC)CC(=O)N([C@@H]2C[C@@H](C)Oc3ccc(C(=O)N[C@@H]4c5ccccc5C[C@H]4O)cc32)C(=N)N1: 2.8
CCC1(CC)CC(=O)N([C@@H]2CCOc3ccc(C(=O)N[C@@H]4c5ccccc5CC4(C)O)cc32)C(=N)N1 (single isomer, unassigned) [Example 44A]: 1.5
CC[C@]1(C)CC(=O)N(C2c3cc(C(=O)N[C@@H]4c5ccccc5OC(C)(C)[C@H]4O)ccc3OCC2(C)C)C(=N)N1 (stereo partly shown): 6.1
CCC1(CC)CC(=O)N(C2c3cc(C(=O)N[C@@H]4c5ccccc5C[C@@]4(C)O)ccc3OCC2OC)C(=N)N1 (stereo partly shown): 6.5

Let us move to another entry and its EC50.
Q) Requested read-out: EC50. Entry: "CCC1(CC)CC(=O)N([C@H]2c3cc(C(=O)N[C@@H]4c5ccccc5OC(C)(C)[C@H]4O)ccc3CC[C@@H]2OC)C(=N)N1"
A) 0.6

* * *

test system: parasites (ring stage, in human red blood cell culture); assay: Parasite LDH growth assay (antiparasite potency, Parasite Assay); format: cell-based, Plasmodium falciparum; settings: Plasmodium falciparum, Erythrocyte, 72 h, 0.7% rings, 2% haematocrit, 72 hours at 37° C., LDH readout of parasite growth
compounds and their reported log10 EC50
Short version: log10 scale, EC50, nM.

CCC1(CC)CC(=O)N([C@@H]2C[C@@H](OC)c3ccc(C(=O)N[C@@H]4c5ccccc5C[C@H]4O)cc32)C(=N)N1: 0.56
CC[C@@]1(C)CC(=O)N([C@@H]2CCOc3ccc(C(=O)N[C@@H]4c5cc(F)ccc5OC(C)(C)[C@H]4O)cc32)C(=N)N1: -0.10
CC(C)[C@]1(C)CC(=O)N([C@@H]2CCOc3ccc(C(=O)NC4c5ccccc5OC(C)(C)C4O)cc32)C(=N)N1 (single isomer, unassigned) [Example 11A]: -0.05
CC1(C)CC(=O)N(C2c3cc(C(=O)N[C@H]4CC(C)(C)Oc5ccccc54)ccc3OC2(C)C)C(=N)N1 (stereo partly shown): 0.94
CC1(C)CC(=O)N([C@H]2c3cc(C(=O)N[C@@H]4c5ccccc5C[C@H]4O)ccc3CC2(C)C)C(=N)N1: 2.02

Q) // query log10 EC50 value for entry "CCC1(CC)CC(=O)N([C@H]2c3cc(C(=O)N[C@@H]4c5ccccc5OC(C)(C)[C@H]4O)ccc3OC2(C)C)C(=N)N1"
A) -0.10

Q) I have this compound here, "CCC1(CC)CC(=O)N([C@@H]2CCOc3ccc(C(=O)N[C@@H]4c5cc(F)ccc5OC[C@H]4O)cc32)C(=N)N1" , and I need its recorded log10 EC50.
A) 0.41

Q) Give its log10 EC50 value. Item: CC[C@]1(C)CC(=O)N(C2c3cc(C(=O)N[C@@H]4c5ccccc5C[C@@]4(C)O)ccc3OCC2OC)C(=N)N1 (stereo partly shown)
A) 1.82

Q) Which value of log10 EC50 has been reported for CCC1(CC)CC(=O)N([C@@H]2CCOc3c(C#N)cc(C(=O)N[C@H]4CC(C)(C)Oc5ccccc54)cc32)C(=N)N1 [Example 27A] in the records?
A) 0.11

Q) Form field: reported log10 EC50 of "CCC1(CC)CC(=O)N([C@@H]2Cc3ccc(C(=O)N[C@@H]4c5ccccc5C[C@H]4O)cc32)C(=N)N1"
A) 1.30

Q) Need log10 EC50 of CC1(C)CC(=O)N([C@@H]2CC(C)(C)Oc3ccc(C(=O)N[C@@H]4c5ccccc5OC[C@H]4O)cc32)C(=N)N1 [Example 49A] , thanks.
A) 1.69

Q) What value of log10 EC50 has been reported for the following compound? "CC[C@]1(C)CC(=O)N([C@@H]2CCc3ccc(C(=O)N[C@@H]4c5ccccc5C[C@H]4O)cc32)C(=N)N1"
A) 0.82

Q) Item under review: CC(C)[C@]1(C)CC(=O)N([C@@H]2CCOc3ccc(C(=O)N[C@H]4CC(C)(C)Oc5ccccc54)cc32)C(=N)N1 [Example 10A] . Reported log10 EC50?
A) -0.30
